# Test system: T1, DRED complex (TR2/TR4 heterodimer DNA-binding core) (Mus musculus, UniProt Q505F1;P49117 Q505F1:1-590,P49117:1-596)
# T1 sequence 1: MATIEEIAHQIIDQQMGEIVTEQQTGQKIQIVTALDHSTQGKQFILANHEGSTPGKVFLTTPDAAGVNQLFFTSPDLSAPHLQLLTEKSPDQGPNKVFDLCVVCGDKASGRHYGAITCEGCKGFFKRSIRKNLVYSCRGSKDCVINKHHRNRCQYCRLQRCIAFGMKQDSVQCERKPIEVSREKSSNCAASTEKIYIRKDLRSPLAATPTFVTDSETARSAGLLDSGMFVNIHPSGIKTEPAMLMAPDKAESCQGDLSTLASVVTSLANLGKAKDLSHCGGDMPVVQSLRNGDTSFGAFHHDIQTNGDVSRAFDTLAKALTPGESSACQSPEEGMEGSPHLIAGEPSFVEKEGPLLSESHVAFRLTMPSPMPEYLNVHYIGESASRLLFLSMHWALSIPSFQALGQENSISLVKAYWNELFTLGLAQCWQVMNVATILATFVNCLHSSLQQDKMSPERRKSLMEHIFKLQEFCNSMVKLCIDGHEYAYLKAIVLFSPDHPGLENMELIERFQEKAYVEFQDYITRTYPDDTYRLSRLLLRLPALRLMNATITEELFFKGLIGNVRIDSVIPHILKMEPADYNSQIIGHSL
# T1 sequence 2: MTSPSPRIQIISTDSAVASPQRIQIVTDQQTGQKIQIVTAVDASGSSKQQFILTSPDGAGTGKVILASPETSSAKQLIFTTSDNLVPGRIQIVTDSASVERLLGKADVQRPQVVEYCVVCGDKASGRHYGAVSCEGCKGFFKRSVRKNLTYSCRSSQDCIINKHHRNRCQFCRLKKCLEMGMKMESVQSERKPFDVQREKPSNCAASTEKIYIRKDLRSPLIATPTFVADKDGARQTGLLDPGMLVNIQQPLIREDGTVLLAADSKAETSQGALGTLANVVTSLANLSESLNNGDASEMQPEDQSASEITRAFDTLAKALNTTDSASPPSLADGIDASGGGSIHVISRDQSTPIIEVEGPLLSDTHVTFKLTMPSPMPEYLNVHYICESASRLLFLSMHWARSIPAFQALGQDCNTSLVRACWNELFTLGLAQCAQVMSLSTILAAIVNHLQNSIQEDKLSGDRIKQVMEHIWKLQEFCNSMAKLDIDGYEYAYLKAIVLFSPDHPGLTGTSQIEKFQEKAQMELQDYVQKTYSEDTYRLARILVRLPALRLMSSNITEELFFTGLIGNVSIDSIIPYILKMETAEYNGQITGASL
# Method: EMSA; saturation binding, MEL nuclear extract
# Assay setup: protein: extract; tags: native, MEL mouse erythroleukemia cell nuclear extract; label: 32P (probe); blunt ended

{"Binder": "epsilon distal DR (dsDNA) DNA 1: CCCTGAGGACACAGGTCAGCCTTG DNA 2: CAAGGCTGACCTGTGTCCTCAGGG", "Kd / pM": 560}
